# Test system: K-562 leukemia
# PROTOCOL_NOTES: NCI-60 one-dose screen, 48 h (100 = growth as untreated, 0 = no growth, -100 = all killed)
# CONDITION_NOTES: 10 µM
The panel holds about 83,000 compounds, 20% with a hit somewhere; the sample as a whole holds those more often.
OUTCOME_MEASURE: growth (%)
Quick note: give the figure in %, leave out the unit.

Prompt line: Using the record for N#CCCN1C/C(=C/c2ccccc2)C(=O)/C(=C/c2ccccc2)C1 , report its growth.
Response line: 2.2

Prompt line: What growth value was documented for this molecule, CC(=O)/C(=C/c1ccccc1)C(=O)CC(C)C ?
Response line: 41.5

Prompt line: Endpoint output: growth of O=C(NC(Cc1ccc(O)cc1)C(=O)N=Nc1c(O)[nH]c2ccccc12)c1ccccc1 (configuration not stated) . Value?
Response line: 107

Prompt line: growth lookup needed for COc1ccc(/C=C/C(=O)Nc2ccc(-c3nc4ccc(F)cc4s3)cc2)cc1 , thanks.
Response line: 79.6

Prompt line: Entry CS(=O)(=O)Nc1cccc(-c2cc(-c3ccccc3Cl)c(C#N)c(N)n2)c1 : reported growth = ?
Response line: 14.1

Prompt line: Quick one: growth for FC(F)(F)c1ccc2nc(-c3nc(-c4ccccc4)n4ccccc34)[nH]c2c1 ?
Response line: 82.7

Prompt line: So what does the record say about growth for COc1cc(NC(=O)CCSc2nc3ccc(Cl)cc3c(=O)n2Cc2ccccc2)cc(OC)c1OC ?
Response line: 67.1
